Collected pKi values appear next to each entry.
target: Muscarinic acetylcholine receptor M1 (Homo sapiens); experiment: Displacement of [3H]NMS from recombinant human muscarinic M1 receptor expressed in CHOK1 cell membranes after 120 mins by scintillation counting method
Sequence (P11229 whole entry): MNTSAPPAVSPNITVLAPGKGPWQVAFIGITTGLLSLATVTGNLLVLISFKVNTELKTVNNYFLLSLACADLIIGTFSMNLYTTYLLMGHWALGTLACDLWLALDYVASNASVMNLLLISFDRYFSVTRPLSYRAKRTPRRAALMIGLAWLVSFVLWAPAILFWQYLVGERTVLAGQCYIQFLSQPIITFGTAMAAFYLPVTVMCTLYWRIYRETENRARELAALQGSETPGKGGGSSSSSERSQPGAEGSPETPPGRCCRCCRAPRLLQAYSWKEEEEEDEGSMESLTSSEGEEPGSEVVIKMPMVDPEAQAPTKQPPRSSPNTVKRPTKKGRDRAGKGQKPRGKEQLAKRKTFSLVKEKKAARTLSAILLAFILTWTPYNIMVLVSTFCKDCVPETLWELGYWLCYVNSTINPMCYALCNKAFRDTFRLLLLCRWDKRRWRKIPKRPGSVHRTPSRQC
# log scale: pKi equals minus log10 of the concentration in mol/L

c1ccc(C2(c3ccccc3)COC[C@@H](CO[C@@H]3CN4CCC3CC4)O2)cc1 :: 7.26

Query :: Can you look up the measured pKi of `c1ccc(C2(c3ccccc3)COC[C@@H](CO[C@H]3CN4CCC3CC4)O2)cc1` for me?
Result :: 6.79

Query :: And `c1ccc(C2(c3ccccc3)COC[C@H](CO[C@@H]3CN4CCC3CC4)O2)cc1` ?
Result :: 8.34

Query :: Item: O=C(O[C@H]1CN2CCC1CC2)N1CCc2ccccc2[C@@H]1c1ccccc1 [SOLIFENACIN]
Result :: 7.29

Query :: Please do the same for `c1ccc(C2(c3ccccc3)COC[C@H](CO[C@H]3CN4CCC3CC4)O2)cc1` as well.
Result :: 8.05

* * *

target: UniProtKB P08912; assay: Displacement of [3H]NMS from recombinant human muscarinic M5 receptor expressed in CHOK1 cell membranes after 120 mins by scintillation counting method
Sequence (P08912 whole entry): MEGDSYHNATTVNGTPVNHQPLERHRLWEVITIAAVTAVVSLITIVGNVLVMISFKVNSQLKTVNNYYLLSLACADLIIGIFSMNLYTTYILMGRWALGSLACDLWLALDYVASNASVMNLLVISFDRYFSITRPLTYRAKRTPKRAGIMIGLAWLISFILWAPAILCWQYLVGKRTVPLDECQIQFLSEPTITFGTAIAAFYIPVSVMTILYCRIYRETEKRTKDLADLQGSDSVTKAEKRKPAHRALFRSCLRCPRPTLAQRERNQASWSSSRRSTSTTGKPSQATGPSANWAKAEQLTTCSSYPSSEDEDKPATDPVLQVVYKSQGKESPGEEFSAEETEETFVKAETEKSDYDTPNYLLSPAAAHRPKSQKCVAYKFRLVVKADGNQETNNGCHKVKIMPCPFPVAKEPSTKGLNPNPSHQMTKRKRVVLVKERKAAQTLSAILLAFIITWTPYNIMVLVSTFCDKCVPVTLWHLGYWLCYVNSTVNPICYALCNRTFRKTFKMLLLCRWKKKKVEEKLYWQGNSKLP
pKi: −log10 of the molar value.
Kindly return 1 if reported pKi is no lower than 7; return -1 if it is lower.

Take a look at these entries with their results.
O=C(O[C@H]1CN2CCC1CC2)N1CCc2ccccc2[C@@H]1c1ccccc1 :: 1
c1ccc(C2(c3ccccc3)COC[C@H](CO[C@H]3CN4CCC3CC4)O2)cc1 :: 1
c1ccc(C2(c3ccccc3)COC[C@H](CO[C@@H]3CN4CCC3CC4)O2)cc1 :: 1

Shifting focus to the compound that follows.
Query :: Could you tell me if the measured pKi of `c1ccc(C2(c3ccccc3)COC[C@@H](CO[C@H]3CN4CCC3CC4)O2)cc1` reaches 7 or more?
Result :: -1

* * *

target: Muscarinic acetylcholine receptor M3 (Homo sapiens); test: Displacement of [3H]NMS from recombinant human muscarinic M3 receptor expressed in CHOK1 cell membranes after 120 mins by scintillation counting method
Sequence (P20309 whole entry): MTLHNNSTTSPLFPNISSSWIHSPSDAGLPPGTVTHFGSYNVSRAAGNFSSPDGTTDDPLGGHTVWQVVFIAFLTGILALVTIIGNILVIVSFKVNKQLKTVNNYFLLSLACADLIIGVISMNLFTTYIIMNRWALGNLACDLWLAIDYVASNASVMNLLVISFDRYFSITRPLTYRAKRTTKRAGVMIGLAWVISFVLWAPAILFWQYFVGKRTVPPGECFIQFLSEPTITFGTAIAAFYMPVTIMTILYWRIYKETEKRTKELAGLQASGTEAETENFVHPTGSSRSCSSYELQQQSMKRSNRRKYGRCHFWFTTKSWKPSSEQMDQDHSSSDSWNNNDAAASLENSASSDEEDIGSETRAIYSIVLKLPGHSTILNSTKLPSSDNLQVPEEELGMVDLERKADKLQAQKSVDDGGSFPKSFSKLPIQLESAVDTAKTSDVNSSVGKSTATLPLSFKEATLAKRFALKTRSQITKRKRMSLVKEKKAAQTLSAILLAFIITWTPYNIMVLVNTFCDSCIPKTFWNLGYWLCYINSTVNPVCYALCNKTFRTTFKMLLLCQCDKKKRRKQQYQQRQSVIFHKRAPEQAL
reported-property: pKi
Expect pKi as a plain number equal to -log10 of the molar concentration.

c1ccc(C2(c3ccccc3)COC[C@@H](CO[C@@H]3CN4CCC3CC4)O2)cc1 :: 6.98
c1ccc(C2(c3ccccc3)COC[C@H](CO[C@H]3CN4CCC3CC4)O2)cc1 :: 7.36
c1ccc(C2(c3ccccc3)COC[C@@H](CO[C@H]3CN4CCC3CC4)O2)cc1 :: 6.21

Query :: State the recorded pKi for this entry: O=C(O[C@H]1CN2CCC1CC2)N1CCc2ccccc2[C@@H]1c1ccccc1 [SOLIFENACIN]
Result :: 7.88

Query :: Now this one: `c1ccc(C2(c3ccccc3)COC[C@H](CO[C@@H]3CN4CCC3CC4)O2)cc1`
Result :: 7.70

* * *

molecular target: Muscarinic acetylcholine receptor M4 (Homo sapiens); experiment: Displacement of [3H]NMS from recombinant human muscarinic M4 receptor expressed in CHOK1 cell membranes after 120 mins by scintillation counting method
Sequence (P08173 whole entry): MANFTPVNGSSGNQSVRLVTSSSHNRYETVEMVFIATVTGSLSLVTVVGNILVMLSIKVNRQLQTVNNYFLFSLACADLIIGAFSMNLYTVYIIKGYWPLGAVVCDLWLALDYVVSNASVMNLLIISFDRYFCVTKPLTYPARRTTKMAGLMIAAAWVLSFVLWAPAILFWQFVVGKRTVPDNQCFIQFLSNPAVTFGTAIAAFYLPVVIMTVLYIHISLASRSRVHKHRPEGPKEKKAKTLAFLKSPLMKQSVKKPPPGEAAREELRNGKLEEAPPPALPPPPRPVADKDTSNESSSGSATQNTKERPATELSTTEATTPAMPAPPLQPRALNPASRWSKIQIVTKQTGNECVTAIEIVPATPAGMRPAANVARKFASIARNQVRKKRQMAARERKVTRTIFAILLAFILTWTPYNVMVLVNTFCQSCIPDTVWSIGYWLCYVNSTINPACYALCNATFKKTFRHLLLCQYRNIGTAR
Items are presented alongside their recorded pKi.
Scale note: pKi = -log10(concentration in M).

Below: 4 compounds and their reported pKi.
O=C(O[C@H]1CN2CCC1CC2)N1CCc2ccccc2[C@@H]1c1ccccc1 :: 6.89
c1ccc(C2(c3ccccc3)COC[C@H](CO[C@H]3CN4CCC3CC4)O2)cc1 :: 7.64
c1ccc(C2(c3ccccc3)COC[C@@H](CO[C@H]3CN4CCC3CC4)O2)cc1 :: 6.36
c1ccc(C2(c3ccccc3)COC[C@@H](CO[C@@H]3CN4CCC3CC4)O2)cc1 :: 7.00

Query :: Query: pKi; subject: `c1ccc(C2(c3ccccc3)COC[C@H](CO[C@@H]3CN4CCC3CC4)O2)cc1`
Result :: 7.94
